Particulars: in n-pentanol, 318.15 K
Endpoint Label: solubility (mole fraction)

**Query** Consider the molecule shown here: CC(C)(N)C(=O)O What is its recorded solubility (mole fraction)?
**Result** 0.000721

====

Particulars: in n-pentanol, 298.15 K
Endpoint Label: solubility (mole fraction)
Please reply with the value in numeric form only.

**Query** Suppose we examine the compound CC(C)(N)C(=O)O ; what solubility (mole fraction) value has been reported?
**Result** 0.000369

====

Particulars: in water, 288.15 K
Endpoint Label: solubility (mole fraction)
// no unit, no text: just the number

**Query** # input compound: CC(C)(N)C(=O)O ; wanted: its solubility (mole fraction)
**Result** 0.0259

====

Particulars: in n-butanol, 298.15 K
Endpoint Label: solubility (mole fraction)
Just the number, please.

**Query** Which solubility (mole fraction) is reported for this molecule? CC(C)(N)C(=O)O
**Result** 0.000334

====

Particulars: in isopropanol, 293.15 K
Endpoint Label: solubility (mole fraction)
Please give the numeric answer without any surrounding text.

**Query** Form field: reported solubility (mole fraction) of CC(C)(N)C(=O)O
**Result** 0.000198

====

Particulars: in ethyl acetate, 283.15 K
Endpoint Label: solubility (mole fraction)
The response must contain the number and no unit.

**Query** Entry CC(C)(N)C(=O)O : reported solubility (mole fraction) = ?
**Result** 0.000164

====

Particulars: in methanol, 298.15 K
Endpoint Label: solubility (mole fraction)
Respond with the number and no other words.

**Query** Which measured solubility (mole fraction) value corresponds to CC(C)(N)C(=O)O ?
**Result** 0.000792

====

Particulars: in acetonitrile, 298.15 K
Endpoint Label: solubility (mole fraction)
Format: numeric value only, no unit, no commentary.

**Query** Quick one: solubility (mole fraction) of CC(C)(N)C(=O)O ?
**Result** 0.000189

====

Particulars: in 2-butanone, 318.15 K
Endpoint Label: solubility (mole fraction)
# respond with the number and nothing more

**Query** Returns the measured solubility (mole fraction) for the input compound. Input: CC(C)(N)C(=O)O
**Result** 0.000803

====

Particulars: in ethyl acetate, 308.15 K
Endpoint Label: solubility (mole fraction)
Form rule: numeric answer, no unit written next to it.

**Query** I would be grateful if you could share the reported solubility (mole fraction) for CC(C)(N)C(=O)O .
**Result** 0.000808

====

Particulars: in n-butanol, 318.15 K
Endpoint Label: solubility (mole fraction)

**Query** Return reported solubility (mole fraction); argument: CC(C)(N)C(=O)O
**Result** 0.000783

====

Particulars: in 2-butanone, 298.15 K
Endpoint Label: solubility (mole fraction)
Output: the number by itself.

**Query** Suppose we examine the compound CC(C)(N)C(=O)O ; what solubility (mole fraction) value has been reported?
**Result** 0.000415

====

Particulars: in isopropanol, 303.15 K
Endpoint Label: solubility (mole fraction)
Just the number.

**Query** Reported solubility (mole fraction), compound CC(C)(N)C(=O)O : ____
**Result** 0.000275

====

Particulars: in methyl acetate, 298.15 K
Endpoint Label: solubility (mole fraction)
Format: numeric value only, no unit, no commentary.

**Query** Please look up its solubility (mole fraction): CC(C)(N)C(=O)O
**Result** 0.000168

====

Particulars: in methyl acetate, 318.15 K
Endpoint Label: solubility (mole fraction)
Could you keep your reply to the number by itself?

**Query** // solubility (mole fraction) lookup, key: CC(C)(N)C(=O)O
**Result** 0.000364

====

Particulars: in DMF, 293.15 K
Endpoint Label: solubility (mole fraction)

**Query** // lookup solubility (mole fraction) for CC(C)(N)C(=O)O
**Result** 0.000365

====

Particulars: in ethanol, 318.15 K
Endpoint Label: solubility (mole fraction)

**Query** Record request: solubility (mole fraction) value, item CC(C)(N)C(=O)O
**Result** 0.000763

====

Particulars: in acetonitrile, 313.15 K
Endpoint Label: solubility (mole fraction)

**Query** Using the record for CC(C)(N)C(=O)O , report its solubility (mole fraction).
**Result** 0.000277

====

Particulars: in methyl acetate, 283.15 K
Endpoint Label: solubility (mole fraction)

**Query** Return reported solubility (mole fraction); argument: CC(C)(N)C(=O)O
**Result** 6.8e-05

====

Particulars: in 2-butanone, 293.15 K
Endpoint Label: solubility (mole fraction)
In your answer, state the number alone without any accompanying words.

**Query** So what's the measured solubility (mole fraction) for this one? CC(C)(N)C(=O)O
**Result** 0.000319

====

Particulars: in ethanol, 293.15 K
Endpoint Label: solubility (mole fraction)
Hey, just send me the number, nothing else.

**Query** Can you share its solubility (mole fraction)? I mean this compound: CC(C)(N)C(=O)O
**Result** 0.000277

====

Particulars: in methanol, 293.15 K
Endpoint Label: solubility (mole fraction)
Output spec: single numeric token, no unit.

**Query** // query solubility (mole fraction) value for entry CC(C)(N)C(=O)O
**Result** 0.000715

====

Particulars: in isopropanol, 298.15 K
Endpoint Label: solubility (mole fraction)

**Query** Data request, read-out solubility (mole fraction), for CC(C)(N)C(=O)O
**Result** 0.000227

====

Particulars: in n-propanol, 318.15 K
Endpoint Label: solubility (mole fraction)
Form field (numeric): enter value without unit.

**Query** For CC(C)(N)C(=O)O , what is its reported solubility (mole fraction)?
**Result** 0.000774

====

Particulars: in acetonitrile, 303.15 K
Endpoint Label: solubility (mole fraction)
# respond with the number and nothing more

**Query** Data request, read-out solubility (mole fraction), for CC(C)(N)C(=O)O
**Result** 0.000218

====

Particulars: in isopropanol, 283.15 K
Endpoint Label: solubility (mole fraction)

**Query** Any idea what its solubility (mole fraction) is? The compound is CC(C)(N)C(=O)O
**Result** 0.000157

====

Particulars: in methanol, 318.15 K
Endpoint Label: solubility (mole fraction)

**Query** // returns reported solubility (mole fraction) for input CC(C)(N)C(=O)O
**Result** 0.00117

====

Particulars: in n-propanol, 303.15 K
Endpoint Label: solubility (mole fraction)
Just the number, please, no unit attached.

**Query** Bench note: what solubility (mole fraction) did CC(C)(N)C(=O)O show?
**Result** 0.000466

====

Particulars: in water, 298.15 K
Endpoint Label: solubility (mole fraction)
I only need the number, thanks.

**Query** So what's the measured solubility (mole fraction) for this one? CC(C)(N)C(=O)O
**Result** 0.0266

====

Particulars: in isopropanol, 318.15 K
Endpoint Label: solubility (mole fraction)
Answer with a bare number; do not write a unit.

**Query** For the compound CC(C)(N)C(=O)O , what solubility (mole fraction) is on record?
**Result** 0.000466

====

Particulars: in acetone, 283.15 K
Endpoint Label: solubility (mole fraction)
Number only, no unit.

**Query** For the compound CC(C)(N)C(=O)O , what solubility (mole fraction) is on record?
**Result** 6e-05

====

Particulars: in 2-butanone, 303.15 K
Endpoint Label: solubility (mole fraction)
Lab note: record just the number, no unit beside it.

**Query** Data request, read-out solubility (mole fraction), for CC(C)(N)C(=O)O
**Result** 0.000507

====

Particulars: in water, 308.15 K
Endpoint Label: solubility (mole fraction)
Reply: number alone, nothing else.

**Query** Look up solubility (mole fraction) for this compound: CC(C)(N)C(=O)O
**Result** 0.0273

====

Particulars: in acetone, 298.15 K
Endpoint Label: solubility (mole fraction)
Please give only the number in your answer, with no unit.

**Query** Find the recorded solubility (mole fraction) belonging to CC(C)(N)C(=O)O and report it.
**Result** 0.000211

====

Particulars: in acetonitrile, 293.15 K
Endpoint Label: solubility (mole fraction)
Give a plain numeric answer without units written out.

**Query** What does the record list as solubility (mole fraction) for CC(C)(N)C(=O)O ?
**Result** 0.000163

====

Particulars: in ethanol, 308.15 K
Endpoint Label: solubility (mole fraction)

**Query** So what's the measured solubility (mole fraction) for this one? CC(C)(N)C(=O)O
**Result** 0.000579

====

Particulars: in n-pentanol, 308.15 K
Endpoint Label: solubility (mole fraction)
Keep it simple and answer with nothing but the number.

**Query** Reported solubility (mole fraction), compound CC(C)(N)C(=O)O : ____
**Result** 0.000523

====

Particulars: in acetone, 318.15 K
Endpoint Label: solubility (mole fraction)
Just the number, please.

**Query** solubility (mole fraction) for CC(C)(N)C(=O)O ?
**Result** 0.000442

====

Particulars: in water, 318.15 K
Endpoint Label: solubility (mole fraction)
Provide a numeric answer; units are not to be included.

**Query** Endpoint output: solubility (mole fraction) of CC(C)(N)C(=O)O . Value?
**Result** 0.0282
